Listed binders paired with reported fold over background MFI
target: T1, human Prostate Specific Membrane Antigen (PSMA) (human, UniProt Q04609 1-750); test: flow cytometry on LNCaP cells
T1 construct: whole, on cells; also called Glutamate Carboxypeptidase II; FOLH1
T1 sequence (Q04609 whole entry): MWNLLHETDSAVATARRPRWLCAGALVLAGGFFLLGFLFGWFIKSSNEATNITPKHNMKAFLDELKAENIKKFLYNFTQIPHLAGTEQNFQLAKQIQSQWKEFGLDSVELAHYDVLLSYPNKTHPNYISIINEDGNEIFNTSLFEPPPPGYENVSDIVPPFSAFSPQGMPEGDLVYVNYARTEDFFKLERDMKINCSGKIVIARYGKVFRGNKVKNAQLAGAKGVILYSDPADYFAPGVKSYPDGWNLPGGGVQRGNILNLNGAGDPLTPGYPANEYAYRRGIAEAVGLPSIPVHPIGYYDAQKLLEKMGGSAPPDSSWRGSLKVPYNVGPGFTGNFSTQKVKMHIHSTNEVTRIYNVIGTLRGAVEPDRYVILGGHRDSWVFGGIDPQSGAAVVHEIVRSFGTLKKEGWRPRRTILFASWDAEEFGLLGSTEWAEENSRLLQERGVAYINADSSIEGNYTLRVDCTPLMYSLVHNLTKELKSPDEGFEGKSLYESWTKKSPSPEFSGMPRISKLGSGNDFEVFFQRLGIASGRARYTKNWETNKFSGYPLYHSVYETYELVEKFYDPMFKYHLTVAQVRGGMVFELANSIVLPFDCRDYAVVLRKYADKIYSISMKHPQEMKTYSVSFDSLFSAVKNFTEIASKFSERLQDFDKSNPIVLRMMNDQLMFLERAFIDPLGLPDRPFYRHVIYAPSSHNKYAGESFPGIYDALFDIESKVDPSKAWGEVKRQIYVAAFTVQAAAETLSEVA
Measurement Kind: fold over background MFI (fold over background)

Binder | Measurement Kind | Reported Result
anti-PSMA heavy-chain antibody (HCAb) clone ID 326027 (antibody, V domains shown, Heavy chain-only antibody (UniAb)) VH: QVQLVESGGGVVQPGRSLRLSCAASGFSFRSYGMHWVRQAPGKGLEWVAVIWYDGSNKYYADSVKGRFTISRDNSKNTLYLQMNSLRAEDTAVYYCAREPRIGYYYDSSGYDSLDYRGQGTLVTVSS | fold over background MFI | 138
anti-PSMA heavy-chain antibody (HCAb) clone ID 345505 (antibody, V domains shown, Heavy chain-only antibody (UniAb)) VH: QVQLVESGGGVVQPGRSLRLSCAASGFTFISYGMHWVRQAPGKGLEGVAVIWYDGSNRYYADSVKGRFTISRDNSKNTLYLQMNSLRAEDTAVYYCAREPRIGYYYESSGYYSLDYRGQGTLVTVSS | fold over background MFI | 59
